System: Lymphocytes
Assay: Chemokine-induced rapid adhesion of lymphocytes to ICAM-1 (LFA-1 ligand)
Type: cell-based
Settings: Homo sapiens, Lymphocyte; [cpd] 100 μM; read-out: Inhibition of Adhesion (%) Lymphocytes (MIP3-β) (converted)
experimental-readout: inhibition at 100 µM (%)
One number for each entry, in %.

I am curious: what inhibition at 100 µM value has been reported for COc1ccc(-c2c3n(c4cc(OC)c(OC)cc24)CCOC3)cc1 [Example 76] ?
48.3

State the recorded inhibition at 100 µM for this entry: COC(=O)c1c(-c2ccc(OC)cc2)c2cc(OC)c(OC)cc2n1CCN1CCCC1 [Example 52]
58.9

In the following, a different molecule is considered.
Looking for the measured inhibition at 100 µM of CCOC(=O)c1[nH]c2cc(OC)c(OC)cc2c1-c1ccncc1 [Example 81] , can you help?
34.9
